All figures here come from patent US5098613A.

For each entry below, report its inhibition at 1 µM value.
- TEST SYSTEM: leukotriene B4 specific receptor on the membrane of human neutrophils (Homo sapiens, UniProt Q15722)
- Construct: incubating neutrophils (1×10^7 cells) with 0.1-0.2 nM ^3 H-LTB4; endogenous in cells; host or cells: human peripheral blood neutrophils (buffy coats of two blood donors)
- Sequence (Q15722 whole entry): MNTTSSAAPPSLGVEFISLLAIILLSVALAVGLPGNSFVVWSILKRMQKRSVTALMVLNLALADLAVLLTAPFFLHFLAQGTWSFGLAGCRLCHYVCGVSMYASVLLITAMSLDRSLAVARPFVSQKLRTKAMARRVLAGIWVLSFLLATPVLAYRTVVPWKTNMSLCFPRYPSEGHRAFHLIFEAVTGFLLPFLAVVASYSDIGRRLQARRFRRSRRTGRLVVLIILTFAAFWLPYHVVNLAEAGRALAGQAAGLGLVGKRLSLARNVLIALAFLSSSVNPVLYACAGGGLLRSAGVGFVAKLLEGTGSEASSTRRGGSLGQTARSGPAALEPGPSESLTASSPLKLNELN
- TEST METHOD NOTES: Inhibition of Binding of ^3 H-LTB4 to Peripheral Human Neutrophils
- CONDITION SET: drug concentration 10^-6 M; 4° C., 10 minutes
One number for each entry, in %.

COMPOUND | UNITS SYMBOL | inhibition at 1 µM
C=CCc1cc(C(C)=O)c(O)cc1OCCCCCCC#N [Example 24, 7-(4-Acetyl-5-hydroxy-2-allylphenoxy)-] | % | 59

IN: GET /values?readout=inhibition at 1 µM&item= `CCc1cc(C(C)=O)c(O)cc1OCCCCCCC(=O)N(C)C`
OUT: 61

====

- TEST SYSTEM: leukotriene B4 specific receptor on the membrane of human neutrophils (Homo sapiens, UniProt Q15722)
- Construct: incubating neutrophils (1×10^7 cells) with 0.1-0.2 nM ^3 H-LTB4; endogenous in cells; host or cells: human peripheral blood neutrophils (buffy coats of two blood donors)
- TEST METHOD NOTES: Inhibition of Binding of ^3 H-LTB4 to Peripheral Human Neutrophils
- CONDITION SET: drug concentration 10^-5 M; 4° C., 10 minutes; read-out: LTB4 Binding Inhibition
Counter-ions that a name gives are not always drawn.
QUANTITY KIND: inhibition at 10 µM (%)
Answers are plain numbers, in %.

COMPOUND | QUANTITY KIND | EXPERIMENTAL RESULT
CCc1cc(C(C)=O)c(O)cc1OCCCCCC[S+](C)[O-] (stereo not drawn) | inhibition at 10 µM | 91
C=CCc1cc(C(C)=O)c(O)cc1OCCCCCCCC#N | inhibition at 10 µM | 88

Give inhibition at 10 µM for each listed item.
1. CCCc1cc(C(C)=O)c(O)cc1OCCCCN [Example 74, hydrochloride]
2. CCc1cc(C(C)=O)c(O)cc1OCCCCC#N
3. C=CCc1cc(C(C)=O)c(O)cc1OCCCCCCSC
4. CCc1cc(C(C)=O)c(O)cc1OCCCCCC(C)(C)c1nn[nH]n1

OUT:
1: 0; 2: 90; 3: 78; 4: 105

====

Give measured inhibition at 10 µM for each item. Keep answers brief.
- TEST SYSTEM: leukotriene B4 specific receptor on the membrane of human neutrophils (Homo sapiens, UniProt Q15722)
- Construct: incubating neutrophils (1×10^7 cells) with 0.1-0.2 nM ^3 H-LTB4; endogenous in cells; host or cells: human peripheral blood neutrophils (buffy coats of two blood donors)
- TEST METHOD NOTES: Inhibition of Binding of ^3 H-LTB4 to Peripheral Human Neutrophils
- CONDITION SET: drug concentration 10^-5 M; 4° C., 10 minutes; read-out: LTB4 Binding Inhibition
Answers are plain numbers, in %.

See these solved cases before continuing.
COMPOUND | UNITS SYMBOL | inhibition at 10 µM
CCc1cc(C(C)=O)c(O)cc1OCCCCCC(C)(C)C#N [Example 68] | % | 84
CCc1cc(C(C)=O)c(O)cc1OCCCCCC(C)(C)C(=O)N(C)O [Example 149] | % | 97
CCc1cc(C(C)=O)c(O)cc1OCCCCCCCC(C)(C)C(=O)N(C)O [Example 150] | % | 90
CSCc1cc(C(C)=O)c(O)cc1OCCCCCCC#N [Example 128] | % | 97
C=CCc1cc(C(=O)CCCC(=O)O)c(O)cc1OCCCCC#N [Example 106] | % | 9

Here is the next item to consider.
IN: Query (compound): CCc1cc(C(C)=O)c(O)cc1OCc1cccc(SC)c1 [Example 59] ; field requested: inhibition at 10 µM
OUT: 58
